System: Aspergillus niger
ASSAY NOTES: Antifungal activity against Aspergillus niger MTCC 282
Type: functional
READOUT NAME: MIC

Please state recorded MIC (tested on Aspergillus niger) of Cc1ccc(-[n+]2noc([O-])c2CN2CCOCC2)cc1 1000 µg/mL

Item COC1=CC(=O)C[C@@H](C)[C@]12Oc1c(Cl)c(OC)cc(OC)c1C2=O with Aspergillus niger - MIC? 100 µg/mL

Param readout= MIC; system= Aspergillus niger; entry= Cc1ccc(-[n+]2noc([O-])c2CN2CCN(c3ccccc3)CC2)cc1 ; returns value. 200 µg/mL

Value wanted: MIC (Aspergillus niger) of entry [O-]c1on[n+](-c2ccc(Cc3ccc(-[n+]4noc([O-])c4CN4CCN(c5cccc(Cl)c5Cl)CC4)cc3)cc2)c1CN1CCN(c2cccc(Cl)c2Cl)CC1 250 µg/mL

Give MIC (Aspergillus niger) of the following compound: CC(=O)N1CCN(Cc2c([O-])on[n+]2-c2ccc(C)cc2)CC1 200 µg/mL

Entry [O-]c1on[n+](-c2ccc(Cc3ccc(-[n+]4noc([O-])c4CN4CCN(C5=Nc6ccccc6Sc6ccccc65)CC4)cc3)cc2)c1CN1CCN(C2=Nc3ccccc3Sc3ccccc32)CC1 , system Aspergillus niger: what MIC was measured? 1000 µg/mL

Find MIC (Aspergillus niger) for the entry CN1CCN(Cc2c([O-])on[n+]2-c2ccc(Cc3ccc(-[n+]4noc([O-])c4CN4CCN(C)CC4)cc3)cc2)CC1 1000 µg/mL

Find MIC (Aspergillus niger) for the entry Cc1ccc(-[n+]2noc([O-])c2CN2CCCCC2)cc1 500 µg/mL
